# test.target: HA of ca A/Wuhan/359/95 (H3N2) virus (influenza A virus)
# method: cell-based or functional assay
readout.kind: Neutralization IC50, H3-WH95-OR (µg/mL)

binder="Antibody 13 (antibody, V domains shown) VH: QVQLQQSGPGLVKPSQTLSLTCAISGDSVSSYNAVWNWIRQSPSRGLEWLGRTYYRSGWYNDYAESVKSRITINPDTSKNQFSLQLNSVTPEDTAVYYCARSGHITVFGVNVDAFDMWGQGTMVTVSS VL: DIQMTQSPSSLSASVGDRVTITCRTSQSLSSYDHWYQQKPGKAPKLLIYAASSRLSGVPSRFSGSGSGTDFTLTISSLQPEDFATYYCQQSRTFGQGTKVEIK" reading_unit=µg/mL data_value=3.01
binder="Antibody 3 (antibody, V domains shown) VH: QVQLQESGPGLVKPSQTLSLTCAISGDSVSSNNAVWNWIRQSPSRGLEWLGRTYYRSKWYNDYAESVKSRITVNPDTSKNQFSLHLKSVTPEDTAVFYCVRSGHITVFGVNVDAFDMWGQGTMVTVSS VL: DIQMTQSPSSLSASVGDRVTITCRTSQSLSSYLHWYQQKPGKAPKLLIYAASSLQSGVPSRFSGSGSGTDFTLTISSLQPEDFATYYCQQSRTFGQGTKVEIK" reading_unit=µg/mL data_value=7.7
binder="Antibody 12 (antibody, V domains shown) VH: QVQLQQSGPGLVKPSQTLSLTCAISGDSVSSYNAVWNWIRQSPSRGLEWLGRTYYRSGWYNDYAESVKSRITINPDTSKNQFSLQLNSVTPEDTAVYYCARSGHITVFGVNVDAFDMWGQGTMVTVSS VL: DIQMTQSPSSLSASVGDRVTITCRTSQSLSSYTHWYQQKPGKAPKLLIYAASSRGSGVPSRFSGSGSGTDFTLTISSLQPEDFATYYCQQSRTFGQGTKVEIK" reading_unit=µg/mL data_value=2.34
